Values were extracted from the RNAGym collection of RNA variant scans (doi:10.1093/molbev/msab373).

B1: Azoarcus group I ribozyme (parent)
chain: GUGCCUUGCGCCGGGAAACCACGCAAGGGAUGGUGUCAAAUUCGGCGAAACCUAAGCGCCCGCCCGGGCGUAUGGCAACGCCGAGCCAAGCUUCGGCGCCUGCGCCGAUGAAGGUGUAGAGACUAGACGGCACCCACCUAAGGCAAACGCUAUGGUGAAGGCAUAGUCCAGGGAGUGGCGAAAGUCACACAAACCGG

# Variants of: B1
# MEASUREMENT NOTES: reverse-splicing fitness (ratio to wild type); higher = more active; in vitro selection; Mg2+ level not given
Below: a set of entries, each annotated with reported reverse-splicing fitness.

### Prompt State, in one line, measured reverse-splicing fitness of A111G A120G A145U C150A C169G U176G
### Response 0.00424

### Prompt State its reverse-splicing fitness for this variant: C82A A111U A120G A145C C150G C169G U176G
### Response 0.00452

### Prompt Give reverse-splicing fitness for A111G A120U A145U U176A
### Response 0.364

### Prompt Entry C82G A111U A120C A145U C150A C169G U176G needs its reverse-splicing fitness filled in; supply it.
### Response 0.00638

### Prompt Give the reported value of reverse-splicing fitness for this record: C82G A111U A120G C150A C169G U176A
### Response 0.0227

### Prompt Dear colleague, please send me the reported reverse-splicing fitness for C82U A145U C150G when you can.
### Response 0.0715

### Prompt Please look at this variant and report its reverse-splicing fitness: A145U C150G C169G U176G
### Response 0.00509
